We begin with a simple list: items and their reported IC50.
- system.tested: SOS1:KRAS (G12C) interaction (Homo sapiens (Human), UniProt Q07889)
- Sequence (Q07889 564-1049, stated change not applied): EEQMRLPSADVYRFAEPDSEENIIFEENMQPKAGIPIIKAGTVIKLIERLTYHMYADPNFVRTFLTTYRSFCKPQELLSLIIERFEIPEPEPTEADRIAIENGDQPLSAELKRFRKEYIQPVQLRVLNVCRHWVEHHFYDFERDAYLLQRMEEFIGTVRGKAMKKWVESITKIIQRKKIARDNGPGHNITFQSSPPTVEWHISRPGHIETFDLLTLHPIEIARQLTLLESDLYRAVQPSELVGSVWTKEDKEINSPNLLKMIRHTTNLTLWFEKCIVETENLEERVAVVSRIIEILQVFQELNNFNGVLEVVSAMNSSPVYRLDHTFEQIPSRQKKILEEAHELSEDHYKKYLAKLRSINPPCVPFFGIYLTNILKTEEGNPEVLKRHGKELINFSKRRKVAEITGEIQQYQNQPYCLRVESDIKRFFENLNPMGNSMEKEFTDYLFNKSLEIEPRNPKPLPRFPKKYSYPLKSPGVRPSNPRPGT
- test.name: SOS1 KRas(G12C) FRET Assay
- test.context: 0.5 nM His10-SOS1 (res. 564-1049), 2.5 nM GST-KRAS G12C (res. 1-169), 2 hrs at RT
Please reply with the bare figure in nM and do not write the unit itself.

Answered cases to consult:
{"structure": "C[C@@H](NC(=O)c1cn([C@H]2CCOC[C@@H]2F)c(=O)cc1N[C@H]1[C@@H]2CN(C)C[C@@H]21)c1cccc(C(F)F)c1F", "IC50 [nM]": 25}
{"structure": "Cc1c([C@@H](C)NC(=O)c2cn(C3CCOCC3)c(=O)cc2NCCONC(=N)N)cccc1C(F)(F)F", "IC50 [nM]": 18.2}
{"structure": "C[C@@H](NC(=O)c1cn(C23CC(C2)C3)c(=O)cc1N)c1cccc(C(F)F)c1F", "IC50 [nM]": 315}

Turning now to a further record.
State its IC50: `Cc1c([C@@H](C)NC(=O)c2cn(C3CCOCC3)c(=O)c(Br)c2NC2CCN(C)CC2)cccc1C(F)(F)F`
717
